Assay: qHTS assay to identify small molecule antagonists of the constitutive androstane receptor (CAR) signaling pathway - cell viability counter screen (AID 1224837); also: nearly all actives have a fitted effect of over 45% in size
Details: HepG2-CYP2B6-hCAR viability, CellTiter-Fluor, 23 h, co-treated with 50 nM CITCO; series mostly up to 92.4 µM
Records with an inconclusive call do not appear. Calls of active or inactive are those of the source. Calls follow the shape of the dose curve; as a rule, active = well fitted cell-killing curve with a large enough effect in the repeat runs; inconclusive = weak or mixed curves, or effect the other way; inactive = flat fitted curve, though single readings scatter.
Pick one: active, inactive

Answered examples (5):
{"columns": ["compound", "classification"],
 "data": [
  ["O=C(O)C(Cc1cc(I)c(O)c(I)c1)c1ccccc1 (centres undefined)", "inactive"],
  ["O=C(O)c1cccc(O)c1", "inactive"],
  ["Cc1cc2nc3ccc(=[N+](C)C)cc-3sc2cc1N", "active"],
  ["CCC1(C)CC(=O)NC1=O (centres undefined)", "inactive"],
  ["O=C(Nc1ccccc1)Nc1ccccc1", "inactive"]
]}

What is the recorded call for this compound in the test? "Cc1cc(C(=C2C=CC(=Nc3ccc(S(=O)(=O)O)cc3S(=O)(=O)O)C=C2)c2ccc(Nc3ccc(S(=O)(=O)O)cc3)cc2)ccc1N" inactive

What is the recorded call for this compound in the test? "Nc1nc(Cl)nc2c1ncn2[C@@H]1O[C@H](CO)[C@@H](O)[C@@H]1F" inactive

What is the recorded call for this compound in the test? CCC(C(=O)OCCOCCN(CC)CC)c1ccccc1 (centres undefined) inactive

What is the recorded call for this compound in the test? "CN(C(=O)C(Cl)Cl)c1ccc(OC(=O)c2ccco2)cc1" inactive

What is the recorded call for this compound in the test? "C[C@]12CCC(=O)C=C1C=C[C@@H]1[C@@H]2CC[C@@]2(C)[C@H]1CC[C@@]21CCC(=O)O1" inactive

What is the recorded call for this compound in the test? "CCc1nn(CCCN2CCN(c3cccc(Cl)c3)CC2)c(=O)n1CCOc1ccccc1" inactive

What is the recorded call for this compound in the test? "Cc1ccc(S)cc1" inactive

What is the recorded call for this compound in the test? "COC(OC)(C(=O)c1ccccc1)c1ccccc1" inactive

What is the recorded call for this compound in the test? "O=C(O)c1ccccc1NCCc1ccccc1" inactive

====

Target: Cytochrome P450 1A2 (Homo sapiens) (UniProt P05177)
Sequence (P05177 whole entry, looked up): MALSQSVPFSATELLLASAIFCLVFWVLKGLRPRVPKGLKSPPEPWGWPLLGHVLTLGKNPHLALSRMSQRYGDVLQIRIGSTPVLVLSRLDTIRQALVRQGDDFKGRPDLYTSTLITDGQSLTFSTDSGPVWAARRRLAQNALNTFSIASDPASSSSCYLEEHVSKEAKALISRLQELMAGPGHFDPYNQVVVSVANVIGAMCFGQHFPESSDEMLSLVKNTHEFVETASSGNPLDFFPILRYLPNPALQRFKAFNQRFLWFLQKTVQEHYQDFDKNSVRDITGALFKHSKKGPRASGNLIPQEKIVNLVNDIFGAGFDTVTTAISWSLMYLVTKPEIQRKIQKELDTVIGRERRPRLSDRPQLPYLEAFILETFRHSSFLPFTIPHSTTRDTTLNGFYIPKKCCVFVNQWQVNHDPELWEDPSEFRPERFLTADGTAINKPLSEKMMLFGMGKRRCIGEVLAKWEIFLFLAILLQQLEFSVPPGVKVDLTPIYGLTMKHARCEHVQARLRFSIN
Assay: Cytochrome P450 Family 1 Subfamily A Member 2 (CYP1A2) small molecule antagonists: luciferase reporter qHTS assay (AID 1671199); also: nearly all actives have a fitted effect of over 50% in size
Details: P450-Glo CYP1A2 enzyme, luciferin luminescence, 1 h; series mostly up to 53 µM
Inconclusive results are not listed. Active and inactive are the calls of the source. The call rests on the fitted dose curve; in most records, active means well fitted inhibition curve with a large enough effect in the repeat runs; inconclusive means weak or mixed curves; inactive means no such curve, though single readings can be large or run the other way.
Pick one: active, inactive

Answered examples (5):
{"columns": ["molecule", "classification"],
 "data": [
  ["C[C@@H]1C[C@H]2[C@@H]3CCC4=CC(=O)C=C[C@]4(C)[C@@]3(F)[C@@H](O)C[C@]2(C)[C@H]1C(=O)CO", "inactive"],
  ["O=S(=O)(c1ccccc1)c1ccc(Cl)cc1", "active"],
  ["Nc1nccs1", "inactive"],
  ["CC1=CC(O)CC(C)(C)C1 (stereo not drawn)", "inactive"],
  ["CC(N)CN (stereo not drawn)", "inactive"]
]}

What is the recorded call for this molecule in the test? "C=CCOC(=O)/C=C\C(=O)OCC=C" active

What is the recorded call for this molecule in the test? "O=[N+]([O-])c1cccc(S(=O)(=O)NCCNS(=O)(=O)c2cccc([N+](=O)[O-])c2)c1" inactive

What is the recorded call for this molecule in the test? "CC(=N\O)/C(C)=N/O" active
